# TARGET_OR_TEST_SYSTEM: benzodiazepine receptors
# MEASUREMENT_NOTES: displacement of radioactive labelled flunitrazepam from benzodiazepine receptors
# Criterion met = Ki below 100 nM (exclusive); Criterion not met = Ki at/above 100 nM

CC(C)(C)OC(=O)c1ncn2c1COc1c-2ccc(F)c1C#N [Example 19] ... Criterion met
OC1Oc2ccccc2-n2cnc(-c3noc(C4CC4)n3)c21 (stereo not shown) [Example 4] ... Criterion not met
O=c1oc2ccccc2n2cnc(-c3noc(C4CC4)n3)c12 [Example 10] ... Criterion not met

### Prompt Find out if reported Ki for CCOC(=O)c1ncn2c1COc1ccccc1-2 [Example 7, reference compound] is less than 100 nM
### Response Criterion met

### Prompt Find out if reported Ki for O=C(Nc1ccc2c(c1)OCc1c(-c3noc(C4CC4)n3)ncn1-2)C(F)(F)F [Example 8] is less than 100 nM
### Response Criterion not met

### Prompt Find out if reported Ki for CC(C)(C)c1nc(-c2ncn3c2COc2cc(F)ccc2-3)no1 [Example 17] is less than 100 nM
### Response Criterion not met

### Prompt Find out if reported Ki for CCOC(=O)c1ncn2c1COc1cc(F)ccc1-2 [Example 15] is less than 100 nM
### Response Criterion met

### Prompt Find out if reported Ki for CC(C)(C)OC(=O)c1ncn2c1COc1cc(F)ccc1-2 [Example 16] is less than 100 nM
### Response Criterion met

### Prompt Find out if reported Ki for c1ccc2c(c1)OCc1c(-c3nc(C4CC4)no3)ncn1-2 [Example 9, reference compound] is less than 100 nM
### Response Criterion met

### Prompt Find out if reported Ki for Fc1ccc2c(c1)OCc1c(-c3noc(C4CC4)n3)ncn1-2 [Example 13] is less than 100 nM
### Response Criterion met

### Prompt Find out if reported Ki for CC(C)(C)OC(=O)Nc1ccc2c(c1)OCc1c(-c3noc(C4CC4)n3)ncn1-2 [Example 2] is less than 100 nM
### Response Criterion not met

### Prompt Find out if reported Ki for CC(C)(C)OC(=O)Nc1ccc2c(c1)OC(OC(=O)c1ccccc1)c1c(-c3noc(C4CC4)n3)ncn1-2 (stereo not shown) [Example 6] is less than 100 nM
### Response Criterion not met

### Prompt Find out if reported Ki for CC1Oc2ccccc2-n2cnc(-c3noc(C4CC4)n3)c21 (stereo not shown) [Example 12] is less than 100 nM
### Response Criterion not met

### Prompt Find out if reported Ki for c1ccc2c(c1)OCc1c(-c3noc(C4CC4)n3)ncn1-2 [Example 1, reference compound] is less than 100 nM
### Response Criterion met

### Prompt Find out if reported Ki for O=C(OC1Oc2ccccc2-n2cnc(-c3noc(C4CC4)n3)c21)c1ccccc1 (stereo not shown) [Example 3] is less than 100 nM
### Response Criterion not met

### Prompt Find out if reported Ki for CC(C)(C)OC(=O)c1ncn2c1COc1ccccc1-2 [Example 11, reference compound] is less than 100 nM
### Response Criterion met

### Prompt Find out if reported Ki for CN(C)c1noc(-c2ncn3c2COc2cc(F)ccc2-3)n1 [Example 18] is less than 100 nM
### Response Criterion not met

### Prompt Find out if reported Ki for Nc1ccc2c(c1)OCc1c(-c3noc(C4CC4)n3)ncn1-2 [Example 5] is less than 100 nM
### Response Criterion met

### Prompt Find out if reported Ki for CC1(C)Oc2ccccc2-n2cnc(-c3noc(C4CC4)n3)c21 [Example 14] is less than 100 nM
### Response Criterion met
